# system: Alcohol dehydrogenase class-3 (Homo sapiens, UniProt P11766)
# Sequence (P11766 whole entry): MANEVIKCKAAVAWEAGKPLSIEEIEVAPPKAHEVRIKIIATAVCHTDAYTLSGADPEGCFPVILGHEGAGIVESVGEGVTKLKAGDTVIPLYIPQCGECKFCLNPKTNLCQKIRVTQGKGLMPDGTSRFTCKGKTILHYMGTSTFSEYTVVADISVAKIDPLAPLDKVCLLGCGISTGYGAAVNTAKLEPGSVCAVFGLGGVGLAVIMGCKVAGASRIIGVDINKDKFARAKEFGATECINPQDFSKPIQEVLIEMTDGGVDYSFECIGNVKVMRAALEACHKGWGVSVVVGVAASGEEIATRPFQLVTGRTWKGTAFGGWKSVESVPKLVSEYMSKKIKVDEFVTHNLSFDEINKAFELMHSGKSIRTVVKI
value-type: IC50 (nM)

{"structure-as-smiles": "Cc1cc(-n2ccnc2)ccc1-c1ccc(-c2nnn[nH]2)cc1Cl", "unit-annotation": "nM", "endpoint-result": 12}

I = O=C(O)c1ccc(-c2ccc(-n3ccnc3)cc2)cc1
II = CCc1cc(-n2ccnc2)ccc1-c1ccc(-c2nnn[nH]2)cc1F
III = Cc1cc(-n2ccnc2)cnc1-c1ccc(C(=O)O)cc1
q: Hey, quick one: sort these by IC50, low to high? # output: labels, in the requested order
a: II, III, I

* * *

# system: CYP2C19 (Homo sapiens, UniProt P33261)
# Sequence (P33261 whole entry): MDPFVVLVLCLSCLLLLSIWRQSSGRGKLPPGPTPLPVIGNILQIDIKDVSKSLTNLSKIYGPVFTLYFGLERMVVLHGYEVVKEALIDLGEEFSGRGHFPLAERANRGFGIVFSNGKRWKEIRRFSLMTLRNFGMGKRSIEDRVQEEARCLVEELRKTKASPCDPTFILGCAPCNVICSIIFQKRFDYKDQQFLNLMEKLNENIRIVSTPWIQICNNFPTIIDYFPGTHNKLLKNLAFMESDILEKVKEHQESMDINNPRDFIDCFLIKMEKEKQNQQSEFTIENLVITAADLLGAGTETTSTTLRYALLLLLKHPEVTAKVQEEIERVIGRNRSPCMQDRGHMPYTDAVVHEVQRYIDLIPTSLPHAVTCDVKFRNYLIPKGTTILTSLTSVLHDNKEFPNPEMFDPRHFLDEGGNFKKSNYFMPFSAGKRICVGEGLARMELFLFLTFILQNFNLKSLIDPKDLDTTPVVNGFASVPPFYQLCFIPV
# test-description: Inhibition of CYP2C19 in human liver microsomes at 10 uM after 40 mins in presence of NADPH by LC/MS/MS analysis relative to control
# Type: ADME
value-type: inhibition at 40 min, 10 µM (%)

{"structure-as-smiles": "Cc1cc(-n2ccnc2)cnc1-c1ccc(-c2nnn[nH]2)cc1", "system": "CYP2C19 (Homo sapiens, UniProt P33261)", "unit-annotation": "%", "endpoint-result": 69}
{"structure-as-smiles": "Cc1nccn1-c1ccc(-c2ccc(-c3nnn[nH]3)cc2)cc1", "system": "CYP2C19 (Homo sapiens, UniProt P33261)", "unit-annotation": "%", "endpoint-result": 33}
{"structure-as-smiles": "Cc1cc(-n2ccnc2)cnc1-c1ccc(-c2nnn[nH]2)cc1F", "system": "CYP2C19 (Homo sapiens, UniProt P33261)", "unit-annotation": "%", "endpoint-result": 45}

P = Cc1cc(-n2ccnc2)ccc1-c1ccc(C(=O)O)cc1
Q = Clc1cc(-n2ccnc2)cnc1-c1ccc(-c2nnn[nH]2)cc1
R = Cc1cc(-n2ccnc2)ccc1-c1ccc(-c2nnn[nH]2)cc1
q: List these items ordered by inhibition at 40 min, 10 µM, big to small. # output: labels, in the requested order
a: R, Q, P

P = Fc1cc(-c2nnn[nH]2)ccc1-c1ncc(-n2ccnc2)cc1Cl
Q = c1cn(-c2ccc(-c3ccc(-c4nn[nH]n4)cc3)cc2)cn1
q: For the two items P and Q , which reports the higher inhibition at 40 min, 10 µM value? Provide the label of your selected option as the answer.
a: Q

* * *

# system: CYP1A2 (Homo sapiens, UniProt P05177)
# Sequence (P05177 whole entry): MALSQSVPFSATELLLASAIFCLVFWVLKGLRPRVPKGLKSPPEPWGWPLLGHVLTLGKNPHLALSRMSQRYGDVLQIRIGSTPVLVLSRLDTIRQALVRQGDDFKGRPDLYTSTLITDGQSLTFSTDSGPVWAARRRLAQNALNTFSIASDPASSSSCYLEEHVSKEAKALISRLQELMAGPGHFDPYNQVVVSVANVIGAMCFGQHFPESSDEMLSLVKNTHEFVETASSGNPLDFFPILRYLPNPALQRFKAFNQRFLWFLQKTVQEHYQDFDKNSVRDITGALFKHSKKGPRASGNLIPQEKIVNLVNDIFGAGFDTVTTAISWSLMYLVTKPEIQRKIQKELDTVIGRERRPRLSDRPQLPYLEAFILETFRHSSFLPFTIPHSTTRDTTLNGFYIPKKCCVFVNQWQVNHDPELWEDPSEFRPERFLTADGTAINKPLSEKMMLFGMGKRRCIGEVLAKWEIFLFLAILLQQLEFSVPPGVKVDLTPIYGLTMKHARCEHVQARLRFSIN
# test-description: Inhibition of CYP1A2 in human liver microsomes at 10 uM after 20 mins in presence of NADPH by LC/MS/MS analysis relative to control
# Type: ADME
# measurement-context: liver microsomes
value-type: inhibition at 20 min, 10 µM (%)

{"structure-as-smiles": "Cc1cc(-n2ccnc2)ccc1-c1ccc(-c2nnn[nH]2)cc1", "value-type": "inhibition at 20 min, 10 µM", "endpoint-result": 39}

a = CCc1cc(-n2ccnc2)ccc1-c1ccc(-c2nnn[nH]2)cc1F
b = Cc1nccn1-c1ccc(-c2ccc(-c3nnn[nH]3)cc2)cc1
q: For the two items a and b , which reports the higher inhibition at 20 min, 10 µM value? Provide the label of your selected option as the answer.
a: a
(a: 41%, b: 10%)

* * *

# system: CYP2C9 (Homo sapiens, UniProt P11712)
# Sequence (P11712 whole entry): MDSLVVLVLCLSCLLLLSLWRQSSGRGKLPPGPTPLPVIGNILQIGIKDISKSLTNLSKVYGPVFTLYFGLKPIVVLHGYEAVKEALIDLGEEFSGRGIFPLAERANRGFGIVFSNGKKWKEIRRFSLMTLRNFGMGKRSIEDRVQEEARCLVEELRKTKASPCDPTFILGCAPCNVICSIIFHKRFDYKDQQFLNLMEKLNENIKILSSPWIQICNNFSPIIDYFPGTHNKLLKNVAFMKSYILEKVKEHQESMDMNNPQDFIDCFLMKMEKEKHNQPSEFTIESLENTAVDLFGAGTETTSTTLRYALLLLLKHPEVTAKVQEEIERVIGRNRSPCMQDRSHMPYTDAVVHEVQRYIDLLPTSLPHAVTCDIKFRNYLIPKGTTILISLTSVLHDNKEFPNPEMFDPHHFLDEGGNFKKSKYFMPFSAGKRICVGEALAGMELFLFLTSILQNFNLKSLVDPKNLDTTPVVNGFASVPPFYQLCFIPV
# test-description: Inhibition of CYP2C9 in human liver microsomes at 10 uM after 20 mins in presence of NADPH by LC/MS/MS analysis relative to control
# Assay type: ADME
value-type: inhibition at 20 min, 10 µM (%)

{"structure-as-smiles": "Cc1cc(-n2ccnc2)cnc1-c1ccc(-c2nnn[nH]2)cc1", "unit-annotation": "%", "inhibition at 20 min, 10 µM": 61}
{"structure-as-smiles": "Cc1cc(-n2ccnc2)cnc1-c1ccc(-c2nnn[nH]2)cc1F", "unit-annotation": "%", "inhibition at 20 min, 10 µM": 60}
{"structure-as-smiles": "CCc1cc(-n2ccnc2)ccc1-c1ccc(-c2nnn[nH]2)cc1F", "unit-annotation": "%", "inhibition at 20 min, 10 µM": 78}

Hello, the source for this data is ChEMBL document CHEMBL4257571, in case you need it.
